target: T1, human CD3 on the cell surface (Jurkat cells, expanded human T cells, Jurkat-Lucia NFAT cells, human PBMC) (human, UniProt P07766 23-207; P04234 22-171; P09693 23-182); assay: FACS, expanded human T cells
T1 construct: whole, on cells; Endogenous CD3 within the TCR-CD3 complex on cells (also zeta chains and TCR); the cell type is named under assay
T1 sequence (P07766 23-207, chain 1 of 3): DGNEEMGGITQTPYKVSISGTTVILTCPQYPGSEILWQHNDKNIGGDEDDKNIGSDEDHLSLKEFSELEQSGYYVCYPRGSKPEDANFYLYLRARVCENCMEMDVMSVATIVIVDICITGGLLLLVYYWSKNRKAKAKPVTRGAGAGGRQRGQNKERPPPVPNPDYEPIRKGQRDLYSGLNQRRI
T1 sequence (P04234 22-171, chain 2 of 3): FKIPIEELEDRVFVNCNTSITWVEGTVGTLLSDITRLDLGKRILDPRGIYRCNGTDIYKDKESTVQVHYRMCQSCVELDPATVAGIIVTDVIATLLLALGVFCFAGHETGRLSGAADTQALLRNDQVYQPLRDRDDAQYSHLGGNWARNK
T1 sequence (P09693 23-182, chain 3 of 3): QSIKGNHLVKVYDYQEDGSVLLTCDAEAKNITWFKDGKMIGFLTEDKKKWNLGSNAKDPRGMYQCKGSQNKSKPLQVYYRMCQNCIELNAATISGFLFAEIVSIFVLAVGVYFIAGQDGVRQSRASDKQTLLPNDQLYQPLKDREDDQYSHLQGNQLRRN
assay-readout: EC50 (nM)
The answer is to be given in nM; state only the numeric part.

Some binders with recorded EC50:
8-18.1-H1-L2 humanized antibody (antibody, human IgG1, kappa, V domains shown) VH: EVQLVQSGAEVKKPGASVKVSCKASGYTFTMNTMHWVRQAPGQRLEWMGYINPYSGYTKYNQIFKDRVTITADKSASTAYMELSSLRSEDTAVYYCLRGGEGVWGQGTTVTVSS VL: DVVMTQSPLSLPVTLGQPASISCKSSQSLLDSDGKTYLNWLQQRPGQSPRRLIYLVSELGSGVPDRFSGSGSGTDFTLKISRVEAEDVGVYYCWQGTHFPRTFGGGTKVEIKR	7.05
1-22.6-1-H2a-L2a humanized antibody (antibody, human IgG1, kappa, V domains shown, also called 1-22.6-H2a-L2a) VH: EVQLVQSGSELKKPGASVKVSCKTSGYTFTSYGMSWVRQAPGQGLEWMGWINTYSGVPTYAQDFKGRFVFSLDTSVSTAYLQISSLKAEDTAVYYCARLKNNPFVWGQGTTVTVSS VL: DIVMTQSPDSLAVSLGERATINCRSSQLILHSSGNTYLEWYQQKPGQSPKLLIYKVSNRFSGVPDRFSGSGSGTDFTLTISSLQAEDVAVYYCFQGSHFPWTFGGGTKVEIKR	11
5-7.13-H1a-L2 humanized antibody (antibody, human IgG1, kappa, V domains shown) VH: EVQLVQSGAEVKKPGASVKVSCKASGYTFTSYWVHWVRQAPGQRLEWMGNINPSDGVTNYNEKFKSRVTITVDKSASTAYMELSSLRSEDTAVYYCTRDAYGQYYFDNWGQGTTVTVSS VL: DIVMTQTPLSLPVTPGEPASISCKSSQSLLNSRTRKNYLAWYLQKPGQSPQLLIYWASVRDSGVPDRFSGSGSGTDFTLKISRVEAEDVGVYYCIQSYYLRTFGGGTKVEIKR	1.52
6-35.22-H1-L1 humanized antibody (antibody, human IgG1, kappa, V domains shown) VH: EVQLVESGGGVVQPGRSLRLSCAASGFTFTDYYMSWVRQAPGKGLEWVAMSRNKAKGHTIEYSSSVKGRFTISRDNSKNTLYLQMNSLRAEDTAVYYCARDTYESYDGYFDVWGQGTTVTVSS VL: DIVMTQSPDSLAVSLGERATINCKSSQSLFNSRSRKNYLAWYQQKPGQTPKLLIYWASIRESGVPDRFSGSGSGTDFTLTISSLQAEDVAVYYCKQSYYLYTFGQGTKLEIKR	49.7
5-40.21-H3-L1 humanized antibody (antibody, human IgG1, kappa, V domains shown) VH: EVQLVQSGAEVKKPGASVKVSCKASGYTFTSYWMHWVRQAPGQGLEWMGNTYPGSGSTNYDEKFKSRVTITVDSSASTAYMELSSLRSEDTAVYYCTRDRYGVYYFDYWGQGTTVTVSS VL: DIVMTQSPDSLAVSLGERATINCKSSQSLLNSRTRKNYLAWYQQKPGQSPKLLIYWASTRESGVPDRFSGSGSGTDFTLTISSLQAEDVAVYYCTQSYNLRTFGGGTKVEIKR	1.65

Report EC50 for 40G5c-hIgG1 (antibody, V domains shown) VH: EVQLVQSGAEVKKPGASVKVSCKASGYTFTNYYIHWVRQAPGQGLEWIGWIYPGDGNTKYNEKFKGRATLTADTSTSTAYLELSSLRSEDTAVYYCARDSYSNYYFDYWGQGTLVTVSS VL: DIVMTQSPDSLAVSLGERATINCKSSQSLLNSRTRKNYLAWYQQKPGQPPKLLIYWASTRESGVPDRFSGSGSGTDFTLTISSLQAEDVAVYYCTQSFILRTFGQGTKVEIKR please. 2.09

Same question, 7-35.6-H2-L3 humanized antibody (antibody, human IgG1, lambda, V domains shown) VH: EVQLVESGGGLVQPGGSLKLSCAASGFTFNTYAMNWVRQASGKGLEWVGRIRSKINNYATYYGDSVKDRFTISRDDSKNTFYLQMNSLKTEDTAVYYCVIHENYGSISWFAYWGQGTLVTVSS VL: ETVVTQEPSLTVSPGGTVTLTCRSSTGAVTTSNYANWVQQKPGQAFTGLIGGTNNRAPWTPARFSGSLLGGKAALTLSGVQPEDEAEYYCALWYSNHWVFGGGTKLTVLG this time 9.45

Same question, 6-44.5-H1-L2 humanized antibody (antibody, human IgG1, kappa, V domains shown) VH: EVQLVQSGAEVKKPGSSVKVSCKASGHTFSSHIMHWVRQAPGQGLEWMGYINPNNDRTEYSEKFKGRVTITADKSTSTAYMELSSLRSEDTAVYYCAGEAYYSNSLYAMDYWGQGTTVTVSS VL: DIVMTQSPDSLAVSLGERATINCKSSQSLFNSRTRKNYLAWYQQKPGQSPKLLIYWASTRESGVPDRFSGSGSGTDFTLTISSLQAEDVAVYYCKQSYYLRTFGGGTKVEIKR this time 0.43

Data origin, for the record: patent US20250136687A1
